Target: 3-oxo-5-alpha-steroid 4-dehydrogenase 2 (Homo sapiens) (UniProt P31213)
Sequence (P31213 whole entry): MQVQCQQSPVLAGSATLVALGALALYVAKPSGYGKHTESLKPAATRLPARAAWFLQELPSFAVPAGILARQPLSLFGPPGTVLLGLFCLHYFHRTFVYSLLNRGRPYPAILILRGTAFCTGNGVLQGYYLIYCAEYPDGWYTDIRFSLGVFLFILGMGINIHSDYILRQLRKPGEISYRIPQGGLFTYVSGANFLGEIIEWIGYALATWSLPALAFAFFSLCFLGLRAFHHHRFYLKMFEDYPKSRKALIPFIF
Assay: Compound was tested in vitro for its inhibitory activity against human 5Alpha-R2 expressed as potency.
// boundary case: Potency equal to 0.03 µM maps to False; strictly smaller maps to True

Some entries whose results are on file:
INSERT INTO measurements (molecule, class_assignment) VALUES
  ('CC(C)Cc1ccc([C@]2(C)Oc3ccc(C(=O)c4cn(CCCC(=O)O)c5ccccc45)cc3O2)cc1', 'True'),
  ('O=C(O)CCCn1cc(C(=O)c2ccc3c(c2)OC(c2ccccc2)(c2ccccc2)O3)c2ccccc21', 'False'),
  ('Cc1c(O[C@@H](C)c2ccc(CC(C)C)cc2)ccc(C(=O)Nc2ccccc2OCCCC(=O)O)c1C', 'False'),
  ('CCCc1ccc(OC(C)c2ccc(C(=O)c3cn(CCCC(=O)O)c4ccccc34)cc2)cc1 (configuration not stated)', 'True');

In the record for CC(C)Cc1ccc([C@@H](C)Oc2ccc(C(=O)c3cn(CCCC(=O)O)c4ccccc34)cc2)cc1 , is Potency less than 0.03 µM?
False

Report whether reported Potency is lower than 0.03 µM (strictly) for CC(C)Cc1ccc(C(C)Oc2ccc(C(=O)N3CC(CCCC(=O)O)c4ccccc43)cc2)cc1 (configuration not stated)
False

Here's an entry: CC(C)Cc1ccc([C@H](C)Oc2ccc(C(=O)c3cn(CCCC(=O)O)c4ccccc34)cc2)cc1 . Is its Potency below 0.03 µM?
True

====

Reported Potency values follow for various compounds
Target: Steroid 5-alpha-reductase (Rattus norvegicus) (UniProt P24008+P31214)
Sequence (P24008 whole entry, looked up): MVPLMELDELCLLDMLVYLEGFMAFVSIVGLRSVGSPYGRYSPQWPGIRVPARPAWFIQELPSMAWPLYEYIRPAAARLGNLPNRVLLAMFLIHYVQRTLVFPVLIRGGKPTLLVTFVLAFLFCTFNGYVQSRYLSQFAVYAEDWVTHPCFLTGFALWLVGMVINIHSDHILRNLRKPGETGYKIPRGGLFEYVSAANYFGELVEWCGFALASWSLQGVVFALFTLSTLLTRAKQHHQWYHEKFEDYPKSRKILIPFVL
Sequence (P31214 whole entry, looked up): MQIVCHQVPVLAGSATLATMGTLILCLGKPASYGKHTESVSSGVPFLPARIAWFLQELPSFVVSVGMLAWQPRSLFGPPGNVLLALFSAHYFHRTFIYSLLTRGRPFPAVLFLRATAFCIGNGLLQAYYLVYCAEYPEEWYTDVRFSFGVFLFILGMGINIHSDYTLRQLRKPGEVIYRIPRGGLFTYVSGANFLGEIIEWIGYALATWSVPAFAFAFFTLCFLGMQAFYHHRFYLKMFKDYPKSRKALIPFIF
Assay: Compound was tested in vitro for its inhibitory activity against rat 5Alpha-R expressed as potency
Assay type: protein assay
Your answer is read as nM, so omit the unit and give the number.

Reference set, count: 5
INSERT INTO assay_data (compound, outcome_measure, recorded_measurement) VALUES
  ('CCCc1ccc(OC(C)c2ccc(C(=O)c3cn(CCCC(=O)O)c4ccccc34)cc2)cc1 (stereo unspecified)', 'Potency', 5),
  ('O=C(O)CCCn1cc(C(=O)c2ccc3c(c2)OC(c2ccccc2)(c2ccccc2)O3)c2ccccc21', 'Potency', 3),
  ('CC(C)Cc1ccc([C@]2(C)Oc3ccc(C(=O)c4cn(CCCC(=O)O)c5ccccc45)cc3O2)cc1', 'Potency', 9),
  ('CC(C)Cc1ccc([C@@H](C)Oc2ccc(C(=O)c3cn(CCCC(=O)O)c4ccccc34)cc2)cc1', 'Potency', 30),
  ('CC(C)Cc1ccc([C@H](C)Oc2ccc(C(=O)c3cn(CCCC(=O)O)c4ccccc34)cc2)cc1', 'Potency', 1);

For the compound CC(C)Cc1ccc(C(C)Oc2ccc(C(=O)N3CC(CCCC(=O)O)c4ccccc43)cc2)cc1 (stereo unspecified) , what Potency is on record?
24

====

Assay: Plasma clearance in rat.
Type: ADME, organism-based
OUTCOME MEASURE: clearance
Could you give the number and then its unit, please?

Which clearance value is on record for CC(C)Cc1ccc([C@H](C)Oc2ccc(C(=O)c3cn(CCCC(=O)O)c4ccccc34)cc2)cc1 ?
11 mL/min/kg

====

Experiment: Oral bioavailability in rat
Format: ADME, organism-based
Settings: in vivo
OUTCOME MEASURE: bioavailability (%)
Supply the numeric figure in %, leaving out any unit text.

// lookup bioavailability for CC(C)Cc1ccc([C@H](C)Oc2ccc(C(=O)c3cn(CCCC(=O)O)c4ccccc34)cc2)cc1
56
